Tested on: K-562 leukemia
Test: NCI-60 one-dose screen, 48 h
Settings: 10 µM unless noted
This is part of a sample that, as a whole, favours compounds with a hit. Of some 83,000 tested, about 20% had one in any assay. The source made the active and inactive calls. How the source made its calls: active means growth percent below 10; inactive means the rest.
Classes used: class 1 = active, class 0 = inactive

compound=O=C(Cc1ccc(F)cc1)c1ccccc1 target_entity="K-562 leukemia" category_label="class 0"
compound=COc1c(F)cc(-n2c(C(=O)N3CC(F)C3)cc3cccnc32)cc1F target_entity="K-562 leukemia" category_label="class 0"
compound=COc1ccc(C/C(C)=C(/c2ccc(OCCN3CCCCCC3)cc2)c2ccc(OC(=O)c3ccccc3)cc2)cc1 target_entity="K-562 leukemia" category_label="class 0"
compound="COc1cccc(C2C(C#N)=C(N)Oc3cc(OCCCCCC[P+](c4ccccc4)(c4ccccc4)c4ccccc4)ccc32)c1 (stereo not given)" target_entity="K-562 leukemia" category_label="class 1"
compound=Cn1cc2c(=O)nc3c(-c4nc5ccccc5[nH]4)n[nH]n3c2n1 target_entity="K-562 leukemia" category_label="class 0"
compound=Cn1cc(-c2csc(-c3cn(CCOC(N)=O)c4ccccc34)n2)c2cccnc21 target_entity="K-562 leukemia" category_label="class 0"
compound=COc1ccc(/C=C2/C(=O)N=C3N2NC(c2ccccc2)=CN3c2ccccc2)cc1 target_entity="K-562 leukemia" category_label="class 0"
compound=COC(=O)c1nc(-c2ccc(C)cc2)oc1Sc1ccc(C)cc1 target_entity="K-562 leukemia" category_label="class 0"
compound=O=c1cc(N/N=C/c2ccc(F)cc2)c2cc(Cl)ccc2[nH]1 target_entity="K-562 leukemia" category_label="class 1"
compound=COc1ccc(-c2cc3cnc4ccccc4c3oc2=O)cc1 target_entity="K-562 leukemia" category_label="class 0"
compound=N#Cc1ccccc1OCC(=O)Nc1nc2c(s1)COc1ccccc1-2 target_entity="K-562 leukemia" category_label="class 0"
compound=Cc1nn(-c2nc(-c3cc4ccccc4oc3=O)cs2)c(C)c1N=Nc1ccccc1 target_entity="K-562 leukemia" category_label="class 0"
compound="O=C1OCC2=C1C(c1cccc([N+](=O)[O-])c1)c1cc3c(cc1N2CCO)CCC3 (stereo not given)" target_entity="K-562 leukemia" category_label="class 1"
compound=Cc1ccc(/C=C(\C#N)c2cc3ccccc3[nH]2)cc1 target_entity="K-562 leukemia" category_label="class 0"
compound=COC(=O)/C=C1/SC(=Nc2ccc([N+](=O)[O-])cc2)N(CCc2c[nH]c3ccccc23)C1=O target_entity="K-562 leukemia" category_label="class 0"
compound=C=CCN1C=CC(=O)[C@H](O[Si](C)(C)C(C)(C)C)[C@@H]1/C=C/c1ccccc1 target_entity="K-562 leukemia" category_label="class 1"
compound=CCOC(=O)c1cc2c(n1Cc1cc(OC)cc(OC)c1Br)-c1nc(NC(C)=O)sc1CCC2 target_entity="K-562 leukemia" category_label="class 0"
compound="CCCn1nc(C(=O)N2CCCCC2)c2c1CCC(N1CCC(c3ccncc3)CC1)C2 (stereo not given)" target_entity="K-562 leukemia" category_label="class 0"
compound=CON1CCC[C@]2(C)[C@H]3CC[C@@H]4[C@H]5[C@@H](O)C(C)(C)CC[C@]5(CO)CC[C@@]4(C)[C@]3(C)CC[C@H]2C1(C)C target_entity="K-562 leukemia" category_label="class 0"
compound=CN1CCN(CCNC(=O)c2cccc(CN3c4cccc5c4C(=Cc4cccnc43)N(C)C5=O)c2)CC1 target_entity="K-562 leukemia" category_label="class 0"

----------
Test system: NCI-H23 lung
Test: NCI-60 one-dose screen, 48 h (100 = growth as untreated, 0 = no growth, -100 = all killed)
Settings: 10 µM unless noted
The panel holds about 83,000 compounds, 20% with a hit somewhere; the sample as a whole holds those more often.
# growth per entry
result type: growth (%)

compound=COc1ccc(-c2cc(-c3cc(OC)c(OC)c(OC)c3)c(C#N)c(=O)n2CCCCC(=O)O)cc1 result_type=growth number=96.7
compound="COc1ccc2c(c1)CC[C@@H]1[C@@H]2CC[C@]2(C)C3C(=CCC4C(=O)N(c5ccccc5)C(=O)C43)C[C@@H]12 (stereo not given in full)" result_type=growth number=84.4
compound="CCCCCO/N=C\\c1c2c(O)c3c(O)c(C)c4c(c3c1O)C(=O)C(C)(O/C=C\\C(OC)C(C)C(OC(C)=O)C(C)C(O)C(C)C(O)C(C)/C=C\\C=C(\\C)C(=O)N2)O4 (stereo not given)" result_type=growth number=19.7
compound=CCNC(=O)Nc1ncccc1OCc1ccc(F)cc1 result_type=growth number=87.1
compound="N#CC1=C(N)Oc2c(sc3c(Br)cccc23)C1c1ccccn1 (stereo not given)" result_type=growth number=53.3
compound=CCCCCCCCCCCCCCCC[N+](C)(C)CCN(Cc1ccc(OC)cc1)c1ncccn1 result_type=growth number=41.5
compound=Nc1nc(CSc2n[nH]c(N)n2)nc(Nc2ccccc2)n1 result_type=growth number=102
compound=COc1ccc(-c2nc(Cl)c3c(C)nn(-c4ccc(F)cc4)c3n2)cc1 result_type=growth number=97.1
compound=Nn1c(-c2ccc(Cl)cc2)nc2c(-c3ccc(Cl)cc3)nc3ccc(Cl)cc3c2c1=O result_type=growth number=56.3
compound=Cc1ccc2[nH]c(=S)[nH]c(=O)c2c1 result_type=growth number=100
compound="O=C1OCC2=C1C(c1cccc(C(F)(F)F)c1)c1cc3c(cc1N2CCO)OCCO3 (stereo not given)" result_type=growth number=28.5
compound=O=C(N=Nc1c(O)[nH]c2ccccc12)Nc1ccc(Br)cc1 result_type=growth number=101
compound=O=C1C(=C(O)c2ccccc2)C(=O)c2ccccc21 result_type=growth number=103
compound=COc1ccc(C/C(C)=C(/c2ccc(OCCN3CCCC3)cc2)c2ccc(OC(=O)NCc3ccccc3)cc2)cc1 result_type=growth number=93.6
compound=COc1cc(-c2nc3occn3c2-c2ccnc(NCCCNS(=O)(=O)c3ccc(O)cc3)n2)ccc1F result_type=growth number=92.6
compound="Nc1ncnc2c1C(c1ccc([N+](=O)[O-])cc1)c1sc3c(F)cccc3c1O2 (stereo not given)" result_type=growth number=86.8
compound="COc1ccc(C2=C(CN)C(O)NC(=NCC(=O)c3ccc4ccccc4c3)N2)cc1 (stereo not given)" result_type=growth number=103
compound=CC/C(=C(/c1ccc(O)cc1)c1ccc(OCCN2CCCCCC2)cc1)c1ccc(Cl)cc1 result_type=growth number=80.4
compound=Cc1ccc(-c2nc(C#N)c(S(=O)(=O)N(C)C)o2)cc1 result_type=growth number=89.2
compound=COc1ccc(Cn2cc(C(=O)Nc3cccnc3Nc3ccccc3)nn2)cc1 result_type=growth number=98.7

----------
Tested on: SK-OV-3 ovarian
Experiment: NCI-60 one-dose screen, 48 h
Conditions: 10 µM unless noted
Compounds without any hit were thinned out: in the full panel of roughly 83,000, 20% have a hit. Active and inactive are the calls of the source. The calls were made as follows: active = growth percent below 10; inactive = the rest.
Classes used: active, inactive

compound=Clc1ccc(CNc2ccc3nc(CCC4CCCCC4)[nH]c3c2)cc1 category_label=inactive
compound=O=C(CCCCCCCCC(=O)N/N=C\c1ccccc1O)N/N=C\c1ccccc1O category_label=inactive
compound=Nc1ccc(-c2nc3ccc4[nH]ncc4c3c3c2CCCC3)cc1F category_label=active
compound=Cn1cc(-c2nonc2-c2cn(C)c3ccc(Br)cc23)c2ccccc21 category_label=inactive
compound=NC(N)=NC(N)=NCCCc1ccco1 category_label=inactive
compound=NCCOCCOc1ccccc1 category_label=inactive
compound=O=C(c1ccc(Nc2nccc(NCCCNc3ccnc4cc(Cl)ccc34)n2)cc1)N1CCCCC1 category_label=inactive
compound=Cc1c(CC(=O)OCCO)cc(-c2ccc(Cl)cc2)n1-c1ccccc1 category_label=inactive
compound=CONC1=Nc2cc(NC(N)=NCc3ccccc3)c(N(C)C3CCCCC3)cc2OC1 category_label=inactive
compound=OCCN1CCN(c2cc(-c3cccc(OC(F)(F)F)c3)nc3ccc(N4CCCC4)cc23)CC1 category_label=inactive
compound=CC(C)(C)CC(N)=O category_label=inactive
compound=CC(=NCc1ccccc1)c1ccc(O)cc1O category_label=inactive
compound=COc1ccc(S(=O)(=O)Nc2cc(Sc3cccc4cccnc34)c(O)c3ccccc23)cc1 category_label=inactive
compound=COc1ccc(Cn2cc(C(=O)Nc3cccnc3Nc3ccccc3)nn2)cc1 category_label=inactive
compound=O=C(NNC(=S)Nc1ccccc1)c1ccncc1 category_label=inactive
compound="C=C(CNCCc1ccc(O)cc1)[C@@H]1CC[C@]2(CO)CC[C@]3(C)[C@H](CC[C@@H]4[C@@]5(C)CCC(NCCc6ccc(O)cc6)C(C)(C)[C@@H]5CC[C@]43C)[C@@H]12 (stereo partly specified)" category_label=active
compound=Cc1[nH]c(C(=O)Nc2nc3ccc(NC(=O)CCN)cc3s2)c(Cl)c1Cl category_label=inactive
compound=O=C(N/N=C/c1ccc(O)cc1O)c1cccc(Nc2ccnc(C(F)(F)F)c2)c1 category_label=inactive
compound=N=C(N)SCc1c2ccccc2c(CSC(=N)N)c2ccccc12 category_label=inactive
compound=O=C(Nc1ccc(F)cc1)c1cc2cc(Nc3nc(-c4ccccc4)nc4ccccc34)ccc2oc1=O category_label=inactive
compound=COc1ccc(/C=C/C(=O)c2cc3c(N)c(C(=O)Nc4ccccc4Cl)sc3nc2C)cc1 category_label=inactive
